// provenance: paper PMC5339894

B1: mAb G196 [mouse] / biotin-SGSGSDLVPRG [modified: biotin on the N-terminus; biotin on the N-terminus] (parent complex)
chain 1: QVKLQESGAELVKPGASVKLSCKASGYTFTNYWMHWVKLRPGQGFEWIGEINPSNGGSNYNEKFKRKATLTVDKSSSTAYMQLSSLTSEDSAVFYCSIWDSYFDYWGQGTTLTVSSAKTTPPSVYPLAPGSAAQTNSMVTLGCLVKGYFPEPVTVTWNSGSLSSGVHTFPAVLQSDLYTLSSSVTVPSSPWPSETVTCNVAHPASSTKVDKKIVPRDC
chain 2: NIVMTQSPKSMSMSVGERVTLTCKASENVVTYVSWYQQKPEQSPKLLIYGASNRYTGVPDRFTGSGSATDFTLTISSVQAEDLADYHCGQGYSYPYTFGGGTKLEIKRADAAPTVSIFPPSSEQLTSGGASVVCFLNNFYPKDINVKWKIDGSERQNGVLNSWTDQDSKDSTYSMSSTLTLTKDEYERHNSYTCEATHKTSTSPIVKSFNRNEC
chain 3: SGSGSDLVPRG

Variants of: B1
measurement description: permutation ELISA (densitometry of spots); parent: 1; read off a plot
Exercise: state measured ratio to parent for each of the variants provided.

Req: Give recorded ratio to parent. chain 3 P9D
Resp: ~0.78

Req: Give recorded ratio to parent. chain 3 P9W
Resp: ~0.82

Req: Give recorded ratio to parent. chain 3 V8F
Resp: ~0.04

Req: Give recorded ratio to parent. chain 3 L7N
Resp: ~0.6

Req: Give recorded ratio to parent. chain 3 V8W
Resp: ~0.03

Req: Give recorded ratio to parent. chain 3 P9Y
Resp: ~0.89

Req: Give recorded ratio to parent. chain 3 L7W
Resp: ~0.05

Req: Give recorded ratio to parent. chain 3 L7F
Resp: ~0.72

Req: Give recorded ratio to parent. chain 3 D6W
Resp: ~0.12

Req: Give recorded ratio to parent. chain 3 D6I
Resp: ~0.08

Req: Give recorded ratio to parent. chain 3 V8I
Resp: ~0.96

Req: Give recorded ratio to parent. chain 3 P9M
Resp: ~0.82

Req: Give recorded ratio to parent. chain 3 P9Q
Resp: ~0.72

Req: Give recorded ratio to parent. chain 3 D6H
Resp: ~0.15

Req: Give recorded ratio to parent. chain 3 V8T
Resp: ~0.95

Req: Give recorded ratio to parent. chain 3 L7Y
Resp: ~0.15

Req: Give recorded ratio to parent. chain 3 D6E
Resp: ~1

Req: Give recorded ratio to parent. chain 3 L7C
Resp: ~0.06

Req: Give recorded ratio to parent. chain 3 L7E
Resp: ~0.08

Req: Give recorded ratio to parent. chain 3 P9T
Resp: ~0.59

Req: Give recorded ratio to parent. chain 3 V8Q
Resp: ~0.16

Req: Give recorded ratio to parent. chain 3 L7I
Resp: ~0.99

Req: Give recorded ratio to parent. chain 3 D6M
Resp: ~0.11

Req: Give recorded ratio to parent. chain 3 L7T
Resp: ~0.11

Req: Give recorded ratio to parent. chain 3 V8M
Resp: ~0.09

Req: Give recorded ratio to parent. chain 3 P9F
Resp: ~0.86

Req: Give recorded ratio to parent. chain 3 D6N
Resp: ~0.25

Req: Give recorded ratio to parent. chain 3 P9N
Resp: ~0.76

Req: Give recorded ratio to parent. chain 3 D6R
Resp: ~0.07

Req: Give recorded ratio to parent. chain 3 P9G
Resp: ~0.67

Req: Give recorded ratio to parent. chain 3 V8E
Resp: ~0.07

Req: Give recorded ratio to parent. chain 3 V8G
Resp: ~0.03

Req: Give recorded ratio to parent. chain 3 L7G
Resp: ~0.04

Req: Give recorded ratio to parent. chain 3 L7H
Resp: ~0.62

Req: Give recorded ratio to parent. chain 3 D6G
Resp: ~0.7

Req: Give recorded ratio to parent. chain 3 D6S
Resp: ~0.95

Req: Give recorded ratio to parent. chain 3 R10H
Resp: ~0.38

Req: Give recorded ratio to parent. chain 3 V8H
Resp: ~0.08

Req: Give recorded ratio to parent. chain 3 V8P
Resp: ~0.04

Req: Give recorded ratio to parent. chain 3 V8L
Resp: ~0.13

Req: Give recorded ratio to parent. chain 3 V8D
Resp: ~0.03

Req: Give recorded ratio to parent. chain 3 P9C
Resp: ~0.78

Req: Give recorded ratio to parent. chain 3 L7A
Resp: ~0.08

Req: Give recorded ratio to parent. chain 3 L7Q
Resp: ~0.07

Req: Give recorded ratio to parent. chain 3 V8K
Resp: ~0.05

Req: Give recorded ratio to parent. chain 3 P9L
Resp: ~0.72

Req: Give recorded ratio to parent. chain 3 P9E
Resp: ~0.86

Req: Give recorded ratio to parent. chain 3 L7M
Resp: ~0.84

Req: Give recorded ratio to parent. chain 3 V8S
Resp: ~0.44

Req: Give recorded ratio to parent. chain 3 V8N
Resp: ~0.11

Req: Give recorded ratio to parent. chain 3 L7P
Resp: ~0.02

Req: Give recorded ratio to parent. chain 3 P9K
Resp: ~0.4

Req: Give recorded ratio to parent. chain 3 P9I
Resp: ~0.85

Req: Give recorded ratio to parent. chain 3 D6L
Resp: ~0.06

Req: Give recorded ratio to parent. chain 3 L7D
Resp: ~0.11

Req: Give recorded ratio to parent. chain 3 L7R
Resp: ~0.13
